- ASSAY_DETAILS: Photochromic properties of the compound in the (co)polymer matrix under xenon lamp exposure
- Assay type: physicochemical
- MEASUREMENT_PARAMETERS: same conditions as compound (I): 0.05% by weight in matrix, 2 mm
MEASUREMENT_TYPE: λmax (nm)
Answers are plain numbers, in nm.

Some entries whose results are on file:
> print(dat)
                                   compound  endpoint.result
1  COc1ccc(C2(c3ccccc3)C=Cc3c(cc(N4CCOCC4)c4ccccc34)O2)cc1 (stereo not shown) [Compound (II)]              439
2  COc1ccc(C2(c3ccc(OC)cc3)C=Cc3c(cc(N4CCOCC4)c4ccccc34)O2)cc1 [Compound C1, reference compound]              456
3  COc1ccc(C2(c3ccccc3)C=Cc3c(cc(N4CCCCC4)c4ccccc34)O2)cc1 (stereo not shown) [Compound C3, reference compound]              430

Turning now to a further compound:
The measured λmax (nm) associated with COc1ccc(C2(c3ccc(C(F)(F)F)cc3)C=Cc3c(cc(N4CCOCC4)c4ccccc34)O2)cc1 (stereo not shown) [Compound C2, reference compound] reads 430
